Let's go through some pKi measurements on Acetylcholinesterase (Homo sapiens, UniProt P22303) together.
Sequence (P22303 whole entry): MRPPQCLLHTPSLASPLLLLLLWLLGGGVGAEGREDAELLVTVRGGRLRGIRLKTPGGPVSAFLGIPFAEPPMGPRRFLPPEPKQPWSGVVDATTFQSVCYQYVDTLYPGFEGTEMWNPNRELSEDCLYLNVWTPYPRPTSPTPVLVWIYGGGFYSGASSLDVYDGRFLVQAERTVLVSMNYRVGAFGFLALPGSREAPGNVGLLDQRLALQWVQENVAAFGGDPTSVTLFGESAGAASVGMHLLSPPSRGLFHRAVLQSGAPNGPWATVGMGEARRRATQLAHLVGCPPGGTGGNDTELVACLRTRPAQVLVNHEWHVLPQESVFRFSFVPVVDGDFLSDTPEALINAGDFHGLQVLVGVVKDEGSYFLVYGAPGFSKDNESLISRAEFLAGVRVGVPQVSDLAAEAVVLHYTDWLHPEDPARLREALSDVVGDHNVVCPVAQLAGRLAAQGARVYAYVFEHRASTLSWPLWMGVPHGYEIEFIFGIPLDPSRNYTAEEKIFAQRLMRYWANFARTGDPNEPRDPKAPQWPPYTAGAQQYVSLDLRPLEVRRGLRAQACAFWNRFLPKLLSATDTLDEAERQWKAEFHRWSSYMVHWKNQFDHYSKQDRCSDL
pKi: −log10 of the molar value.

{"givenSmiles": "COc1cc2cc(C(=O)NCCCCCCNc3c4c(nc5ccccc35)CCCC4)c(=O)oc2cc1OC", "assaySystem": "Acetylcholinesterase (Homo sapiens, UniProt P22303)", "pKi": 7.25}
{"givenSmiles": "COc1ccc2cc(C(=O)NCCCCCNc3c4c(nc5ccccc35)CCCC4)c(=O)oc2c1", "assaySystem": "Acetylcholinesterase (Homo sapiens, UniProt P22303)", "pKi": 7.35}
{"givenSmiles": "COc1cc2cc(C(=O)NCCCCCNc3c4c(nc5ccccc35)CCCC4)c(=O)oc2cc1OC", "assaySystem": "Acetylcholinesterase (Homo sapiens, UniProt P22303)", "pKi": 7.15}
{"givenSmiles": "O=C(NCCCCCCCNc1c2c(nc3ccccc13)CCCC2)c1cc2ccccc2oc1=O", "assaySystem": "Acetylcholinesterase (Homo sapiens, UniProt P22303)", "pKi": 7.37}
{"givenSmiles": "Cc1ccc2oc(=O)c(C(=O)NCCCCCCCNc3c4c(nc5ccccc35)CCCC4)cc2c1", "assaySystem": "Acetylcholinesterase (Homo sapiens, UniProt P22303)", "pKi": 7.18}
{"givenSmiles": "COc1cc2cc(C(=O)NCCCCCCCNc3c4c(nc5ccccc35)CCCC4)c(=O)oc2cc1OC", "assaySystem": "Acetylcholinesterase (Homo sapiens, UniProt P22303)", "pKi": 7.04}
